# System: MS2 coat protein
# measurement.notes: apparent KD of MS2 coat protein; designed switch direction (-1 OFF switch, 1 ON switch): -1; higher = weaker reporter binding
# condition.summary: input ligand: none
Would you mind telling me the reported apparent KD of MS2 coat protein of each entry?
Write down the numeric answer in nM and omit the unit.

Challenge: Check the records and state apparent KD of MS2 coat protein for GUGUGAAGUUAGGAUAUGAUCGGACAAGAGCCUUCAGAAGGGACCACAUGAGGAUCACCCAUGUUGUCGGUGGC [Eternabot (L1) Solution 41] (Eterna round: R97, puzzle: Exclusion 6)
Response given: 18.6

Challenge: Provide only the value of recorded apparent KD of MS2 coat protein for CCACUGUCAGGAUAUCGUGCAUAACGUUUACAAUUUAUGUGCGAGAAGGGACAUGAGGAUCACCCAUGUAAACG [Omei Ex4 A28PK3] (Eterna round: R97, puzzle: Exclusion 4)
Response given: 203

Challenge: Read off the recorded apparent KD of MS2 coat protein for ACGCGAGUAGGAGGAUAUUCCGAGCGCGGGCCGGGAGAAGGCCUAGAUCGUGAACAUGAGGAUCACCCAUGUGGGAUGAUCUAA [Ededaranri] (Eterna round: R96, puzzle: Exclusion NG 1)
Response given: 313

Challenge: Read off the recorded apparent KD of MS2 coat protein for AAUAACAAGCUGAUCCUAAACAUGAGGAUCACCCAUGUGUUCGUCUUGUAAAGUACUAUCACGAAAGUGAUAGUACA (Eterna round: R97, puzzle: Sensor, turn-off variant 1)
Response given: 80

Challenge: Using the record for CAUGUCCAACGAGGAUAUGGGAAAGGAAGUGUACCAGAAGGCGUACGGACAUGAGGAUCACCCAUGUCGCGCGGCGCGAUGUGG [PowerStrip EXNG 1.1] (Eterna round: R96, puzzle: Exclusion NG 1) , state its measured apparent KD of MS2 coat protein.
Response given: 41.5

====

Consider the following sequences; for each one, report its apparent KD of MS2 coat protein.
# Tested on: MS2 coat protein
# measurement.notes: apparent KD of MS2 coat protein; designed switch direction (-1 OFF switch, 1 ON switch): -1; higher = weaker reporter binding
# condition.summary: Eterna round: R95; input ligand: microRNA oligo, concentration not stated
Quick reminder: number only, in nM, skip the unit.

Challenge: Give reported apparent KD of MS2 coat protein value for UCUCUGCGAGGAUAUACGUUUGCGCGCUUUCGUUUGCGCGUACAUGAGGAUCACCCAUGUAGAAGGCGCGUUUC [Apr-15 SS2-9] (puzzle: Exclusion 2)
Response given: 12.6

Challenge: # return recorded apparent KD of MS2 coat protein for input GAUUAUGCGAGCUUUAGGGACAUGAGGAUCACCCAUGUUCGUCUUGUUGAUCUAGGUGCACUGACAUACCUAAAUCU [JMF 88] (puzzle: Sensor v3, turn-off variant 1)
Response given: 27.7

Challenge: For the sequence AGAAAGCAAGGAUAUACGAGGAGAAGGUGGAGAGUUAAAGGACAUGAGGAUCACCCAUGUAGAAGGUGCGAGAA [JR_Exclu2_Sub044] (puzzle: Exclusion 2) , report apparent KD of MS2 coat protein.
Response given: 67.1

Challenge: Find the measured apparent KD of MS2 coat protein of CCGGAAAUGCAGGAUAUCGUAUCGGAUACGAUACGAGAAGGGUAUACAUGAGGAUCACCCAUGUGUCCUGCCGG [Fiskers Ex 6 - 54] (puzzle: Exclusion 6) and report it.
Response given: 39.8

Challenge: Tell me measured apparent KD of MS2 coat protein for UUUUAACAUGAGGAUCACCCAUGUGAGGAUAUCCUAUUUUUUUUUUUUUUUUUUUUUUGGAGAAGGCACAUUUU [My solution] (puzzle: Exclusion 1) please.
Response given: 38.3

====

# Test system: MS2 coat protein
# measurement.notes: apparent KD of MS2 coat protein; designed switch direction (-1 OFF switch, 1 ON switch): -1; higher = weaker reporter binding
# condition.summary: input ligand: none
Could you please report measured apparent KD of MS2 coat protein for the items listed next?
API: value field is a number in nM; no unit string.

Challenge: Let me know recorded apparent KD of MS2 coat protein for CGUAUGUCAGGAUAUCGUGCAUACAACGAAAGUUCUAUGUGCGAGAAGGGACAUGAGGAUCACCCAUGUUUACG [Omei Ex4 A12] (Eterna round: R97, puzzle: Exclusion 4) , thanks.
Response given: 26.1

Challenge: Note down apparent KD of MS2 coat protein recorded for ACAUGCUAGUAGGAUAUCGUACGCCGAAUAGUAUGAGAAGGAUUGACAUGAGGAUCACCCAUGUGAUGCCUGAA [Quveedes] (Eterna round: R97, puzzle: Exclusion 6)
Response given: 18.7

Challenge: # return recorded apparent KD of MS2 coat protein for entry ACCUAUGAGGAGGAUAUACGGUGCGAAAGGAUGGUAGAAGGCUUCACAUGAGGAUCACCCAUGUCUAUAAGCGA [EX6 #87] (Eterna round: R97, puzzle: Exclusion 6)
Response given: 18.3

Challenge: Look up and report measured apparent KD of MS2 coat protein for this entry: CUGCCGAGAGGAUAUACUAAGCGAAGAGCCUCAUAAAAGUUACAUGAGGAUCACCCAUGUAGAAGGCUUGGGAG [Eternabot (Original) Solution 38] (Eterna round: R97, puzzle: Exclusion 2)
Response given: 54.4

Challenge: State its apparent KD of MS2 coat protein: UACACCACAUGAGGAUCAAACAUGAGGAUCACCCAUGUAUAACAAGCUUUUUGCUCGUCUUAUAAAUAUGUGGUGUA [Electric Eye 5 - Jieux - Sensor, turn-off variant 1] (Eterna round: R97, puzzle: Sensor, turn-off variant 1)
Response given: 14.5

Challenge: // Input: GACAGGCAGGCAGGAUAUGCCCGUGUGGAUGGUGUAGAAGGGCUAGCGGGUCACUUGAGGAUCACCCAAGUGGAGGGUGGCCUA [Mutated MS2 EX1.28] (Eterna round: R96, puzzle: Exclusion NG 1) . Output its apparent KD of MS2 coat protein only.
Response given: 38.2

Challenge: Return reported apparent KD of MS2 coat protein. Input sequence: ACAUGUUAUGUAGGAUAUUAGACACAUGAGGAUCACCCAUGUAACCGGAGGCUUUACUAUGAGUUUGAGAAGGGUAUGAACAUG [Ex NG2 #66] (Eterna round: R96, puzzle: Exclusion NG 2)
Response given: 92.1

Challenge: Consider the sequence GUCGCCAGUGUCAGGAUAUGAUGGCCUCGACGCCGUUAGAAGGGACAUGAGGAUCACCCAUGUAACAAGCGACG [Eternabot (Original) Solution 42] (Eterna round: R97, puzzle: Brourd's mod of Exclusion 4) . State its measured apparent KD of MS2 coat protein.
Response given: 27.8

Challenge: Let me know recorded apparent KD of MS2 coat protein for GUGGUACAUGAGGAUCACCCAUGUGAGGAUAUAGUCGGCUGGUGGUCGCGGGUGGUGGCUAGAAGGUGCGUGCG [-19.3, -16.9 kcal, A 18%] (Eterna round: R97, puzzle: Exclusion 1) , thanks.
Response given: 179

Challenge: Return reported apparent KD of MS2 coat protein. Input sequence: AAUAAUAAAGUCAGGAUAUCUAGAGCCUCGGCUCUAGAGAAGGGACAUGAGGAUCACCCAUGUCACUCAAUAAU [BmEx4/3-D2] (Eterna round: R97, puzzle: Brourd's mod of Exclusion 4)
Response given: 17.7

Challenge: Supply measured apparent KD of MS2 coat protein of GCCGGAUAAGUGAGGAUAUACCUAUGGAUACAUAGGUAGAAGGCACAUGAGGAUCACCCAUGUACCUCUCCGGC [JL-BMX4-4.18 Eli mod] (Eterna round: R97, puzzle: Brourd's mod of Exclusion 4) in your reply.
Response given: 14.8

Challenge: Return reported apparent KD of MS2 coat protein. Input sequence: AAUUUUGGAGGAUAUACAUCCCAGGAUCCAGUAAUUAAGUUACAUGAGGAUCACCCAUGUAGAAGGUCAAGAGU [Eternabot (L1) Solution 75] (Eterna round: R97, puzzle: Exclusion 2)
Response given: 44.4

Challenge: Read off the recorded apparent KD of MS2 coat protein for GCCGGGCGAGGAUAUACAUGGCGGGCGAAAGCCCGCGAUCUACAUGAGGAUCACCCAUGUAGAAGGCGCCCGGC [2nd Free energy optimized design] (Eterna round: R97, puzzle: Exclusion 2)
Response given: 49.3

Challenge: In one line, give reported apparent KD of MS2 coat protein of the entry CCCGGGUUUGUAGGAUAUGCCCGCCUUUGGCGGGCAGAAGGACAUGAGGAUCACCCAUGUUGUAUAAACUUGGGAUGUUCCUCG [random4] (Eterna round: R96, puzzle: Exclusion NG 1) .
Response given: 40.7

Challenge: Answer with the recorded apparent KD of MS2 coat protein for the sequence listed here: CGGCAAUCCUAGGAUAUGCUAGACGAGAGUCUAGCAGAAGGAGGAACAUGAGGAUCACCCAUGUGUCCUAGCCG [Mat - Exclusion 6 - Eli Mod - D15] (Eterna round: R97, puzzle: Exclusion 6)
Response given: 15.6

Challenge: Return value of apparent KD of MS2 coat protein for input GCUGGAAAAGGAUAUACAUAACGUGCGUCAGCACGAGACCUACAUGAGGAUCACCCAUGUAGAAGGUUUCCAGC [EX2 #75] (Eterna round: R97, puzzle: Exclusion 2) , no commentary.
Response given: 16.8

Challenge: For the sequence AGUAUGUCAGGAUAUCUCGGGUAGUCCACAACAGCUACCGAAGAGAAGGGACAUGAGGAUCACCCAUGUACCAU [EX4 B.23] (Eterna round: R97, puzzle: Exclusion 4) , give its reported apparent KD of MS2 coat protein.
Response given: 30.6

Challenge: For the sequence AGAUCUAGGACAGGAUAUAUGGAUGUCUUCAUCGAAGAUGAAGACAUUACAUGAGGAUCACCCAUGUAGAAGGGUCCUAGAUCA [Omei Exc(NG) 2Av3] (Eterna round: R96, puzzle: Exclusion NG 2) , report apparent KD of MS2 coat protein.
Response given: 22.2
